methodSummary: Atogepant-topiramate interaction study, cohort 2: topiramate steady-state PK
Format: in vivo, human
assayContext: both sexes, human, plasma, topiramate 100 mg BID + atogepant 60 mg QD, day 17; read-out: AUC0-tau,ss
testReadout: AUC
Hey, just the number and the unit after it is fine.

# AUC of CC1(C)O[C@@H]2[C@@H](CO[C@@]3(COS(N)(=O)=O)OC(C)(C)O[C@@H]23)O1 [topiramate] = 72600 ng·h/mL

====

methodSummary: Hepatic impairment study: atogepant plasma PK
Assay type: in vivo, human
assayContext: human, plasma, oral, 60 mg, mild hepatic impairment; read-out: AUC0-∞ Geometric Least Squares Mean, Test
testReadout: AUC(0-inf)
Hey, just the number and the unit after it is fine.

# AUC(0-inf) of C[C@@H]1[C@H](c2c(F)ccc(F)c2F)C[C@H](NC(=O)c2cnc3c(c2)C[C@@]2(C3)C(=O)Nc3ncccc32)C(=O)N1CC(F)(F)F = 3270 ng·h/mL
